Reported protein stability index values are given for each entry in this list.
- Test protocol: protein stability index of a GFP-peptide fusion (yeast GPS) (PSI 1-4); higher = more stable; sorted into four equal gates, so the index is relative within each strain
- Assay conditions: ubr1∆
Metric: protein stability index

KPNDLVGVNKDSYLILD [RPT5] ... 3.49
VRYTTSVMPPNEVYSAY [DLS1] ... 2.9
LIYVNPFMLQWGIPLIK [FAS1] ... 1.65
HDIAYSKDGLPNKVKTE [RRP6] ... 3.2
RAIILERNAAYQKEYET [RPL7A] ... 2.89
GKKVLNKNQLLKRNRIR [POP1] ... 3.05
SELDSNDFFIIYYTPAF [YJL039C/NUP192] ... 1.55
KGIDSVVRRRFRGNISQ [RPL32] ... 2.89
RASIEYYVGQVMRNNES [DIS3] ... 3.26
SLDIRHDFIKGLIMLNL [NUT1] ... 1.72
NAGTNDNSFNELTDNMS [MCD1] ... 3.3
MLPGSSNGGGKVKPIRG [RPO31] ... 3.07
FMDNSYDIDEIDHSDES [ESC2] ... 2.82
GDMTNSDAQSNLGSNVR [REC8] ... 3.25
PQQNKTPFSFGTANNNS [YJL041W/NSP1] ... 3.05
NGKDSEIMYTGVSISVS [SMC3] ... 2.29
SGLPTCDYYNTFLLNNK [RPN2] ... 2.51
VGVVFGSGAANENPYNN [COR1] ... 3.07
FNKEQLNKFKKAIFQFV [ECM29] ... 1.15
QARIILNHILEKSTQLQ [YGR119C/NUP57] ... 2.79
SQLQPQPQPQPQQQQQH [YDL088C/ASM4] ... 2.88
IKHKHKKVKLAVLSYYK [RPS31] ... 2.25
RGHVLQFEWHQNSLLTN [SNF2] ... 2.6
GLMSANNIIAEGIEKMG [FAS2] ... 1.48
EALVQAFAFCIPVYCFS [YCG1] ... 1.51
NIELHSLYTSREPRVVS [PUP1] ... 3.07
YIKSMDLISKKTKTSLL [RPR2] ... 2.79
DEDESQNIAQSSNQSAP [HRT1] ... 3.19
SGQKAGLIAARRTGLLR [RPL2A] ... 2.72
PISAVLRGCKFLQSVDI [GRR1] ... 2.01
ESKLIPQENDLESKMSE [SMC3] ... 3.01
RSNDPQSSLSKVDIPLE [NUT2] ... 2.93
IDMGEDKENVPVEKVKE [DPB4] ... 3.67
VDVFAMPQSGTGVSVEA [RPN11] ... 3.05
VGQAGRPKKITGWITQS [RPN1] ... 2
MNVQDRRRLLGPAAAKP [MTR3] ... 2.97
MQNSKVESVCQKLDILV [SMC4] ... 1.87
SYRGVDLEKLLEMSTED [RPS15] ... 3.19
AALDLSHTQNIGHLIKT [SMC2] ... 2.72
SYEKNEDHVEDHRKRKK [LIN1] ... 3.21
DDTWYNLTEFVQMDKIR [AAR2] ... 2.83
SMCGFEVRILPRQRMEE [PRP8] ... 2.24
STGCVVGLSQPDAKIQV [YMR129W/POM152] ... 2.42
INKEIFHHWLVEFINKM [SRB8] ... 1.6
QFKTTIKDTANDNDITV [UBP6] ... 1.67
YSLRLINKEIFHHWLVE [SRB8] ... 1.59
DVPSEDDPTQLVSRGGC [RPO21] ... 3.01
DEIYIPINGNEAESQWY [CSI1] ... 3.31
DGNNEIFTCQIMNLITN [RPN4] ... 2.35
RFISDLLWLVLIHPENF [SWI1] ... 2.59
QNISPVYSVDPLEKITD [PRP8] ... 2.85
EHNPSAHTASVGVVFGS [COR1] ... 2.22
KRVTKVKRLLFTIRGFK [MTW1] ... 2.54
